Each entry below carries its recorded IC50.
Biological target: METTL3/14 (Homo sapiens, UniProt Q86U44)
Sequence (Q86U44 whole entry): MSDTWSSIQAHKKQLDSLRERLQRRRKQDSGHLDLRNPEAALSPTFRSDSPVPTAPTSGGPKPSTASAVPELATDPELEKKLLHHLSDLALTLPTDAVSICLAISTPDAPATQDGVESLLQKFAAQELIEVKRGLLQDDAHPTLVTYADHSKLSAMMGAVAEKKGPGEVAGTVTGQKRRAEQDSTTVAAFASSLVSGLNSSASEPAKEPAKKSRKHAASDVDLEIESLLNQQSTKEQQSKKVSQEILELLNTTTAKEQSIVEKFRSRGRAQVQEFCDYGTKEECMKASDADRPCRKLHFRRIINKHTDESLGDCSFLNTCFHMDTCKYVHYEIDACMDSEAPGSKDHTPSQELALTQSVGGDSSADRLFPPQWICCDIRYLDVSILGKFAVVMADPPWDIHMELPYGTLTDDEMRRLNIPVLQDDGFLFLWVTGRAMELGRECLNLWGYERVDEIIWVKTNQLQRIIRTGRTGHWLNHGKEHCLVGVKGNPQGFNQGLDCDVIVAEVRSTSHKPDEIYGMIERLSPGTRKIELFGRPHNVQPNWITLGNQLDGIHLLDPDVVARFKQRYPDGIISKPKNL
Sequence (Q9HCE5 whole entry partner): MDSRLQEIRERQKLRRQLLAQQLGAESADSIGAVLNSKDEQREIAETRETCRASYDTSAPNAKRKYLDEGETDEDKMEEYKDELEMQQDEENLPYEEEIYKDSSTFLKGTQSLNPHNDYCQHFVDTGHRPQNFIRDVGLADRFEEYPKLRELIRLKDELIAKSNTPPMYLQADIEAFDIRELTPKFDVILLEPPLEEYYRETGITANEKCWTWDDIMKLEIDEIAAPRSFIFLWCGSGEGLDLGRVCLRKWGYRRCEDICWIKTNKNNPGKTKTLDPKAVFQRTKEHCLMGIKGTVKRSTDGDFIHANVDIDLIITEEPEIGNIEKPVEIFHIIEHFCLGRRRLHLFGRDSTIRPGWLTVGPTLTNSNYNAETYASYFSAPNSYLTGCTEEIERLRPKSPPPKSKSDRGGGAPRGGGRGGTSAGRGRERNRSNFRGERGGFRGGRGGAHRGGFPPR
Assay: METTL3/14 methyltransferase activity assay (HTRF)
Settings: 10 concentrations, 3-fold dilution from 10 µM
Method: The final initial concentration of the compound was 10 µM, with 3-fold serial dilution to give a total of 10 concentrations. 100 nL of the compound was transferred to a 384-well plate and centrifuged at 1000 RPM. 2.5 µL of METTL3/14 (active motif, Cat No. 31570) was added to the test wells and incubated at 25°C for 10 min. 2.5 µL of METTL3-Biotin & SAM (GenScript) was added to the test wells andincubated at 25°C for 60 min. […] HTRF was measured using a Plate reader. […]

Use these answered entries as a reference point.
COC1(CNCc2cc3ccc(CNC(=O)c4cc(=O)n5cc6c(cc5n4)OCO6)cc3[nH]2)CCC1 < 10 nM
O=C(NCc1ccc2cc(CNCC3CC4(CCC4)C3)[nH]c2c1)c1cc(=O)n2cc3c(cc2n1)OCO3 10 to 100 nM
O=C(NCc1ccc2cc(CNCC3CCC3)[nH]c2c1)c1cc(=O)n2cc3c(cc2n1)OCCO3 10 to 100 nM

Q: Annotate the compound "O=C(NCc1cc2[nH]c(CNCC3CCC3)cc2cc1F)c1cc(=O)n2cc3c(cc2n1)OCO3" with its measured IC50.
Result: < 10 nM

Q: Supply IC50 value. Item: "COC1(CNCc2cc3ccc(CNC(=O)c4cc(=O)n5cc6c(cc5n4)OCCO6)cc3[nH]2)CCC1"
Result: 10 to 100 nM

Q: Tell me its IC50 given "CC1(CNCc2cc3ccc(CNC(=O)c4cc(=O)n5cc6c(cc5n4)OCCO6)cc3[nH]2)CCC1" as the entry.
Result: < 10 nM

Q: Identify IC50 associated with the compound "O=C(NCc1ccc2cc(CNCC3(C(F)(F)F)CCC3)[nH]c2c1)c1cc(=O)n2cc3c(cc2n1)OCO3"
Result: 10 to 100 nM

====

target: METTL3/14 (Homo sapiens, UniProt Q86U44); assay: METTL3/14 methyltransferase activity assay (HTRF); conditions: 10 concentrations, 3-fold dilution from 10 µM
IC50: recorded values

Examples with their reported IC50 follow.
compound	reportedMeasurement
O=C(NC1(c2ccc3cc(CNCC4CCC4)[nH]c3c2)CC1)c1cc(=O)n2cc3c(cc2n1)OCCO3	10 to 100 nM
[2H]C([2H])(NCC1CCC1)c1cc2ccc(CNC(=O)c3cc(=O)n4cc5c(cc4n3)OCO5)cc2[nH]1	< 10 nM
O=C(NCc1ccc2cc(CNCC3CCC3)[nH]c2c1)c1cn2ncc3c2c(n1)OCCO3	100 to 1000 nM
O=C(NCc1ccc2cc(CNC[C@@H]3CCO3)[nH]c2c1)c1cc(=O)n2cc3c(cc2n1)OCCO3	10 to 100 nM
[2H]C([2H])(NCc1cc2ccc(CNC(=O)c3cc(=O)n4cc5c(cc4n3)OCO5)cc2[nH]1)C12CC(F)(C1)C2	< 10 nM

Q: Fill in IC50 for "O=C(NCc1ccc2cc(CN3CCC(F)(F)CC3)[nH]c2c1)c1cc(=O)n2cc3c(cc2n1)OCO3" tested with METTL3/14 (Homo sapiens, UniProt Q86U44).
Result: 10 to 100 nM

====

Molecular target: METTL3/14 (Homo sapiens, UniProt Q86U44)
Experiment: METTL3/14 methyltransferase activity assay (HTRF)
Details: 10 concentrations, 3-fold dilution from 10 µM
Method: The final initial concentration of the compound was 10 µM, with 3-fold serial dilution to give a total of 10 concentrations. 100 nL of the compound was transferred to a 384-well plate and centrifuged at 1000 RPM. 2.5 µL of METTL3/14 (active motif, Cat No. 31570) was added to the test wells and incubated at 25°C for 10 min. 2.5 µL of METTL3-Biotin & SAM (GenScript) was added to the test wells andincubated at 25°C for 60 min. […] HTRF was measured using a Plate reader. […]
pIC50: −log10 of the molar value.
Each record here notes measured pIC50.

Examples with their reported pIC50 follow.
compound	pIC50
O=C(NCc1ccc2cc(CN3CCC(F)(F)CC3)[nH]c2c1)c1cc(=O)n2cc3c(cc2n1)OCCO3 [Example 27]	7.00 to 8.00
O=C(NCc1ccc2cc(CNCC34CCCC3C4)[nH]c2c1)c1cc(=O)n2cc3c(cc2n1)OCO3 (stereo not drawn) [Example 60]	> 8.00
O=C(NCc1ccc2cc(CNCc3ccc(F)s3)[nH]c2c1)c1cc(=O)n2cc3c(cc2n1)OCO3 [Example 82]	7.00 to 8.00
O=C(NCc1ccc2cc(CNCC3CCC3)[nH]c2c1)c1cn2ncc3c2c(n1)NCCO3 [Example 44]	7.00 to 8.00

Q: Provide METTL3/14 (Homo sapiens, UniProt Q86U44) pIC50 reading for O=C(NCc1ccc2cc(CNCC3CCC3)[nH]c2c1)c1cn2ncccc2n1 [Example 1] .
Result: 7.00 to 8.00

Q: State measured pIC50 of the compound CC1(CNCc2cc3ccc(CNC(=O)c4cc(=O)n5cc6c(cc5n4)OCO6)cc3[nH]2)CCC1 [Example 51] with METTL3/14 (Homo sapiens, UniProt Q86U44).
Result: > 8.00

Q: Check METTL3/14 (Homo sapiens, UniProt Q86U44) data and give pIC50 for [2H]C([2H])(NCc1cc2cc(F)c(CNC(=O)c3cc(=O)n4cc5c(cc4n3)OCO5)cc2[nH]1)C1CCC1 [Example 88] .
Result: > 8.00

Q: # assay system METTL3/14 (Homo sapiens, UniProt Q86U44): give pIC50 of O=C(NCc1ccc2cc(CNCC3CC(F)(F)C3)[nH]c2c1)c1cc(=O)n2cc3c(cc2n1)OCO3 [Example 26]
Result: 7.00 to 8.00

Q: Report its pIC50 with METTL3/14 (Homo sapiens, UniProt Q86U44) as the test system: O=C(NCc1cc2[nH]c(CNCC34CC(CO3)C4)cc2cc1F)c1cc(=O)n2cc3c(cc2n1)OCCO3 [Example 86]
Result: 7.00 to 8.00

Q: Tell me its pIC50 on METTL3/14 (Homo sapiens, UniProt Q86U44): [2H]C([2H])(NCc1cc2cc(F)c(CNC(=O)c3cc(=O)n4cc5c(cc4n3)OCCO5)cc2[nH]1)C1CCC1 [Example 90]
Result: > 8.00

Q: Lab note: record pIC50 of O=C(NCc1c(F)cc2cc(CNCC3CCC3)[nH]c2c1F)c1cc(=O)n2cc3c(cc2n1)OCO3 [Example 75] tested on METTL3/14 (Homo sapiens, UniProt Q86U44).
Result: 7.00 to 8.00

Q: State, for METTL3/14 (Homo sapiens, UniProt Q86U44), measured pIC50 of the compound listed here: O=C(NCc1ccc2cc(CNCC3CC(=C(F)F)C3)[nH]c2c1)c1cc(=O)n2cc3c(cc2n1)OCCO3 (stereo not drawn) [Example 28]
Result: 6.00 to 7.00

Q: Lab note: record pIC50 of O=C(NCc1ccc2cc(CNCC34CC(F)(C3)C4)[nH]c2c1)c1cc(=O)n2cc3c(cc2n1)OCCO3 [Example 46] tested on METTL3/14 (Homo sapiens, UniProt Q86U44).
Result: > 8.00

Q: Please tell me the measured pIC50 for O=C(NCc1ccc2cc(CNCC3CCC3)[nH]c2c1)c1cc(=O)n2cc3c(cc2n1)OCO3 [Example 25] ; system: METTL3/14 (Homo sapiens, UniProt Q86U44).
Result: > 8.00

Q: // output pIC50; input O=C(NCc1cn2cc(CNCC3CCC3)ccc2n1)c1cc(=O)n2cc3c(cc2n1)OCO3 [Example 41] ; system METTL3/14 (Homo sapiens, UniProt Q86U44)
Result: > 8.00

====

assay: Rat pharmacokinetic test, intravenous injection; type: in vivo; settings: male, SD, plasma, rats, 2 mg/kg, average of 3 rats
resultType: AUC(0-t) (ng·h/mL)

Below, 4 compounds whose answers are already recorded.
compound	AUC(0-t) / ng·h/mL
[2H]C([2H])(NCc1cc2cc(F)c(CNC(=O)c3cc(=O)n4cc5c(cc4n3)OCO5)cc2[nH]1)C1CCC1 [Example 88]	1710
O=C(NCc1cc2[nH]c(CNCC3CCC3)cc2cc1F)c1cc(=O)n2cc3c(cc2n1)OCO3 [Example 73]	1440
O=C(NCc1ccc2cc(CNCC3CCC3)[nH]c2c1)c1cc(=O)n2cc3c(cc2n1)OCO3 [Example 25]	1460
[2H]C([2H])(NCc1cc2cc(F)c(CNC(=O)c3cc(=O)n4cc5c(cc4n3)OCCO5)cc2[nH]1)C12CC(F)(C1)C2 [Example 94]	1120

I. [2H]C([2H])(NCc1cc2cc(F)c(CNC(=O)c3cc(=O)n4cc5c(cc4n3)OCO5)cc2[nH]1)C12CC(F)(C1)C2 [Example 89]
II. O=C(NCc1ccc2cc(CNCC3CC(F)(F)C3)[nH]c2c1)c1cc(=O)n2cc3c(cc2n1)OCCO3 [Example 24]
Q: Determine, for I and II , which has the greater value of AUC(0-t). Field: selected label. Fill in the label of the entry you choose.
Result: II
(II: 2180 ng·h/mL, I: 1210 ng·h/mL)
